# Target System: Phosphatidylinositol 4,5-bisphosphate 3-kinase catalytic subunit alpha isoform (Homo sapiens, UniProt P42336)
# Sequence (P42336 whole entry, canonical isoform): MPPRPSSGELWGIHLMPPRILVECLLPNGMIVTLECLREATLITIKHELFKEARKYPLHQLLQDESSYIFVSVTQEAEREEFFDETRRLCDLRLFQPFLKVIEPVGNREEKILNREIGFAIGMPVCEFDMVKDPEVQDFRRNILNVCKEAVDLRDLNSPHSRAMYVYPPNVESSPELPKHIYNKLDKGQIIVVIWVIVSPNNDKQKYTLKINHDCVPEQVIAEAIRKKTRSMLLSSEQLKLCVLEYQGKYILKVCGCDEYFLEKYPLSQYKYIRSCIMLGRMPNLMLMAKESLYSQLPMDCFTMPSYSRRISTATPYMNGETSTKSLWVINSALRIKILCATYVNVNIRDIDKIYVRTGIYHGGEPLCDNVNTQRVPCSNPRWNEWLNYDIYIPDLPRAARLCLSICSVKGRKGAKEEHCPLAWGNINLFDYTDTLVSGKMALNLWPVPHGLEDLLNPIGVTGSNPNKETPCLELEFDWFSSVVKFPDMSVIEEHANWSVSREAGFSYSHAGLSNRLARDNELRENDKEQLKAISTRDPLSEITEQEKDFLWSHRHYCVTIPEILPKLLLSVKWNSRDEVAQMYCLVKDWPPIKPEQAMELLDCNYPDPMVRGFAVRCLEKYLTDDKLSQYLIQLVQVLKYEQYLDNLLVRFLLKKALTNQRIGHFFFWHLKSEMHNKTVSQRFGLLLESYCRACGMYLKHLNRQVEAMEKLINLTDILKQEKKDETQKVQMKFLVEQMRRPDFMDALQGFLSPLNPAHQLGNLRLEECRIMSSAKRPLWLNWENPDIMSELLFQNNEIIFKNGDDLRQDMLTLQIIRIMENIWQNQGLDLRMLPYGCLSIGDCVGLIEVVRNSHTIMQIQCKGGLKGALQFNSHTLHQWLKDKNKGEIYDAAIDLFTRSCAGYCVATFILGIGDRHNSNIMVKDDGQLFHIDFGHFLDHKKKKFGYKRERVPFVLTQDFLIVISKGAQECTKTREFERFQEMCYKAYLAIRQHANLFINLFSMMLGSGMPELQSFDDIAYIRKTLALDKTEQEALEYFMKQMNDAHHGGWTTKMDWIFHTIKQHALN
# Method: Inhibition of PI3Kalpha (unknown origin)
pIC50: −log10 of the molar value.

{"Test Smiles": "C=CC(=O)Nc1cc(Nc2ncnc3ccc(-c4cnc5ccccc5c4)cc23)ccc1C", "pIC50": 6.25}

---

# Target System: Phosphatidylinositol 4,5-bisphosphate 3-kinase catalytic subunit delta isoform (Homo sapiens, UniProt O00329)
# Sequence (O00329 whole entry, canonical isoform): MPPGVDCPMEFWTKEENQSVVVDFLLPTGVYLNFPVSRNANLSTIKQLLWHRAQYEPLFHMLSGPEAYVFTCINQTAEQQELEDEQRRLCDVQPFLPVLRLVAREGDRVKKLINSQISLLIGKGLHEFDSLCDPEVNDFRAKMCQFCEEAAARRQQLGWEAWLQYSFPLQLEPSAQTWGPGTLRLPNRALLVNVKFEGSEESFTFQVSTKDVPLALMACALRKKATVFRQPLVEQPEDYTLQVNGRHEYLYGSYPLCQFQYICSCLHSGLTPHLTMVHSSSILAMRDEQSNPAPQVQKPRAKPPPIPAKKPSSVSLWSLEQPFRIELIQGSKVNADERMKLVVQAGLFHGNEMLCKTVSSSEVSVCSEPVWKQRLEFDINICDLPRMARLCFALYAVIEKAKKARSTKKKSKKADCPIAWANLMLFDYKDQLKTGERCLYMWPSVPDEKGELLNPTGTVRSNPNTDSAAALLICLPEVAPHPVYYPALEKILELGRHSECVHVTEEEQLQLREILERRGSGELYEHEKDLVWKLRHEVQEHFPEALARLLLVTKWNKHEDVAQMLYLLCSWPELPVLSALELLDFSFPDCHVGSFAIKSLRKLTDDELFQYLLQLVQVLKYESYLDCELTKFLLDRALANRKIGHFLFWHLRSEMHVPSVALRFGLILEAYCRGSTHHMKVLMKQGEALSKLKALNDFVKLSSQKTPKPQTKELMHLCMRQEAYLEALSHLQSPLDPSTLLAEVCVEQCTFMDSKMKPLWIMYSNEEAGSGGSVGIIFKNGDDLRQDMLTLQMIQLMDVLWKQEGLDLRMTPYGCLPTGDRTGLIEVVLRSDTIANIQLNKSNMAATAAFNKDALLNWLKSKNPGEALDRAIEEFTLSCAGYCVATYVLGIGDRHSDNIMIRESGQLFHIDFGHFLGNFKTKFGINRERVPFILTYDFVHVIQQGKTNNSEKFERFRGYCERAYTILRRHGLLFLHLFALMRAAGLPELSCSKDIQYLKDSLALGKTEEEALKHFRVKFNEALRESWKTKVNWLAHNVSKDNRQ
# Method: Inhibition of PI3Kdelta (unknown origin) by ADP-Glo kinase assay

{"Test Smiles": "C=CC(=O)N1CCc2ccc(Nc3ncnc4ccc(-c5cnc6ccccc6c5)cc34)cc21", "Unit String": "nM", "IC50": 495}
{"Test Smiles": "C=CC(=O)Nc1cccc(Nc2ncnc3ccc(-c4cnc5ccccc5c4)cc23)c1", "Unit String": "nM", "IC50": 117}
{"Test Smiles": "C/C=C/C(=O)Nc1cccc(Nc2ncnc3ccc(-c4cnc5ccccc5c4)cc23)c1", "Unit String": "nM", "IC50": 129}
{"Test Smiles": "C=CC(=O)Nc1cccc(Nc2ncnc3ccc(-c4ccc(Cl)nc4)cc23)c1", "Unit String": "nM", "IC50": 104}
{"Test Smiles": "CCC(=O)Nc1cccc(Nc2ncnc3ccc(-c4cnc5ccccc5c4)cc23)c1", "Unit String": "nM", "IC50": 21}
{"Test Smiles": "CC#CC(=O)Nc1cccc(Nc2ncnc3ccc(-c4cnc5ccccc5c4)cc23)c1", "Unit String": "nM", "IC50": 410}
{"Test Smiles": "C=CC(=O)Nc1cc(Nc2ncnc3ccc(-c4cnc5ccccc5c4)cc23)ccc1C", "Unit String": "nM", "IC50": 27.5}

---

# Target System: Phosphatidylinositol 4,5-bisphosphate 3-kinase catalytic subunit beta isoform (Homo sapiens, UniProt P42338)
# Sequence (P42338 whole entry, canonical isoform): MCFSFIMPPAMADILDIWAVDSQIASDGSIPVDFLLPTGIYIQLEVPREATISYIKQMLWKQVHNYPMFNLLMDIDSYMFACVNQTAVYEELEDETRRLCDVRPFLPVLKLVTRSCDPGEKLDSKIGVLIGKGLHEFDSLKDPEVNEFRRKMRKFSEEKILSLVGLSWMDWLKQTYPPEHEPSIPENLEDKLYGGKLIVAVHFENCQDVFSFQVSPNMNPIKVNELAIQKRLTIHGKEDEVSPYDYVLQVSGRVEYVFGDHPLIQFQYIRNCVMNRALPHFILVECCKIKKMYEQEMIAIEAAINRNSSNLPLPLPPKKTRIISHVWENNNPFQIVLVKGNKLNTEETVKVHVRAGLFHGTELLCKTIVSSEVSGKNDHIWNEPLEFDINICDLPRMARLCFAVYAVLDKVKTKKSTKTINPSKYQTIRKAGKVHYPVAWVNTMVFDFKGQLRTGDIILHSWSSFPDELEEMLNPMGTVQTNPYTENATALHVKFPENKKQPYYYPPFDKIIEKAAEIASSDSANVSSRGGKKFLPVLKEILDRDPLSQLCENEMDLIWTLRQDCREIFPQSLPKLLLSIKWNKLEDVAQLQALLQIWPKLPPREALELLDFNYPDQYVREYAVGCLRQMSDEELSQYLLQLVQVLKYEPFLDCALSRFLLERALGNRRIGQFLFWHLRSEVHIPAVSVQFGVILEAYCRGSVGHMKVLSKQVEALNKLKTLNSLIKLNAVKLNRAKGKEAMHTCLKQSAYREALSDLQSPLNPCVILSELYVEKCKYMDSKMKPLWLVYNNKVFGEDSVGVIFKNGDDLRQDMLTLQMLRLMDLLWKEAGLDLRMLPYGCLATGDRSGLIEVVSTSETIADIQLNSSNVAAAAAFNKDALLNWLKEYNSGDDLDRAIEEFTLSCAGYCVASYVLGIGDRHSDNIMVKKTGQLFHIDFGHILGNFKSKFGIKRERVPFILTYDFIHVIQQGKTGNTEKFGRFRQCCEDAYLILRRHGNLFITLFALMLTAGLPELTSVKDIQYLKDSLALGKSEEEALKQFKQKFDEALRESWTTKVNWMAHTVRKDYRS
# Method: Inhibition of PI3Kbeta (unknown origin)
pIC50: −log10 of the molar value.
Observation Type: pIC50

{"Test Smiles": "C=CC(=O)Nc1cc(Nc2ncnc3ccc(-c4cnc5ccccc5c4)cc23)ccc1C", "Observation Type": "pIC50", "Measured Number": 4.71}

---

The entries below come with measured inhibition values attached.
# Target System: Phosphatidylinositol 4,5-bisphosphate 3-kinase catalytic subunit delta isoform (Homo sapiens)
# Method: Inhibition of PI3Kdelta (unknown origin) at 200 nM by ADP-Glo kinase assay relative to control

{"Test Smiles": "C=CC(=O)Nc1cccc(Nc2ncnc3ccc(-c4ccc(Cl)nc4)cc23)c1", "Unit String": "%", "inhibition": 64.6}
{"Test Smiles": "C=CC(=O)Nc1cccc(Oc2ncnc3ccc(-c4ccc(Cl)nc4)cc23)c1", "Unit String": "%", "inhibition": 33.1}
{"Test Smiles": "C=CC(=O)Nc1cccc(Oc2ncnc3ccc(-c4cccnc4)cc23)c1", "Unit String": "%", "inhibition": 41.8}
{"Test Smiles": "C=CC(=O)Nc1cccc(Oc2ncnc3ccc(-c4ccc(F)nc4)cc23)c1", "Unit String": "%", "inhibition": 23.4}
